Numbers sourced from patent US20150246938A1.

Target: recombinant human ACC2 (Homo sapiens, UniProt O00763)
Construct: a cDNA encoding human ACC2 (27-2458) was cloned from human kidney cDNA library (Clontech); His-tag (N); made in house; host or cells: Sf-9 insect cells (Bac-to-Bac baculovirus)
Sequence (O00763 27-2458): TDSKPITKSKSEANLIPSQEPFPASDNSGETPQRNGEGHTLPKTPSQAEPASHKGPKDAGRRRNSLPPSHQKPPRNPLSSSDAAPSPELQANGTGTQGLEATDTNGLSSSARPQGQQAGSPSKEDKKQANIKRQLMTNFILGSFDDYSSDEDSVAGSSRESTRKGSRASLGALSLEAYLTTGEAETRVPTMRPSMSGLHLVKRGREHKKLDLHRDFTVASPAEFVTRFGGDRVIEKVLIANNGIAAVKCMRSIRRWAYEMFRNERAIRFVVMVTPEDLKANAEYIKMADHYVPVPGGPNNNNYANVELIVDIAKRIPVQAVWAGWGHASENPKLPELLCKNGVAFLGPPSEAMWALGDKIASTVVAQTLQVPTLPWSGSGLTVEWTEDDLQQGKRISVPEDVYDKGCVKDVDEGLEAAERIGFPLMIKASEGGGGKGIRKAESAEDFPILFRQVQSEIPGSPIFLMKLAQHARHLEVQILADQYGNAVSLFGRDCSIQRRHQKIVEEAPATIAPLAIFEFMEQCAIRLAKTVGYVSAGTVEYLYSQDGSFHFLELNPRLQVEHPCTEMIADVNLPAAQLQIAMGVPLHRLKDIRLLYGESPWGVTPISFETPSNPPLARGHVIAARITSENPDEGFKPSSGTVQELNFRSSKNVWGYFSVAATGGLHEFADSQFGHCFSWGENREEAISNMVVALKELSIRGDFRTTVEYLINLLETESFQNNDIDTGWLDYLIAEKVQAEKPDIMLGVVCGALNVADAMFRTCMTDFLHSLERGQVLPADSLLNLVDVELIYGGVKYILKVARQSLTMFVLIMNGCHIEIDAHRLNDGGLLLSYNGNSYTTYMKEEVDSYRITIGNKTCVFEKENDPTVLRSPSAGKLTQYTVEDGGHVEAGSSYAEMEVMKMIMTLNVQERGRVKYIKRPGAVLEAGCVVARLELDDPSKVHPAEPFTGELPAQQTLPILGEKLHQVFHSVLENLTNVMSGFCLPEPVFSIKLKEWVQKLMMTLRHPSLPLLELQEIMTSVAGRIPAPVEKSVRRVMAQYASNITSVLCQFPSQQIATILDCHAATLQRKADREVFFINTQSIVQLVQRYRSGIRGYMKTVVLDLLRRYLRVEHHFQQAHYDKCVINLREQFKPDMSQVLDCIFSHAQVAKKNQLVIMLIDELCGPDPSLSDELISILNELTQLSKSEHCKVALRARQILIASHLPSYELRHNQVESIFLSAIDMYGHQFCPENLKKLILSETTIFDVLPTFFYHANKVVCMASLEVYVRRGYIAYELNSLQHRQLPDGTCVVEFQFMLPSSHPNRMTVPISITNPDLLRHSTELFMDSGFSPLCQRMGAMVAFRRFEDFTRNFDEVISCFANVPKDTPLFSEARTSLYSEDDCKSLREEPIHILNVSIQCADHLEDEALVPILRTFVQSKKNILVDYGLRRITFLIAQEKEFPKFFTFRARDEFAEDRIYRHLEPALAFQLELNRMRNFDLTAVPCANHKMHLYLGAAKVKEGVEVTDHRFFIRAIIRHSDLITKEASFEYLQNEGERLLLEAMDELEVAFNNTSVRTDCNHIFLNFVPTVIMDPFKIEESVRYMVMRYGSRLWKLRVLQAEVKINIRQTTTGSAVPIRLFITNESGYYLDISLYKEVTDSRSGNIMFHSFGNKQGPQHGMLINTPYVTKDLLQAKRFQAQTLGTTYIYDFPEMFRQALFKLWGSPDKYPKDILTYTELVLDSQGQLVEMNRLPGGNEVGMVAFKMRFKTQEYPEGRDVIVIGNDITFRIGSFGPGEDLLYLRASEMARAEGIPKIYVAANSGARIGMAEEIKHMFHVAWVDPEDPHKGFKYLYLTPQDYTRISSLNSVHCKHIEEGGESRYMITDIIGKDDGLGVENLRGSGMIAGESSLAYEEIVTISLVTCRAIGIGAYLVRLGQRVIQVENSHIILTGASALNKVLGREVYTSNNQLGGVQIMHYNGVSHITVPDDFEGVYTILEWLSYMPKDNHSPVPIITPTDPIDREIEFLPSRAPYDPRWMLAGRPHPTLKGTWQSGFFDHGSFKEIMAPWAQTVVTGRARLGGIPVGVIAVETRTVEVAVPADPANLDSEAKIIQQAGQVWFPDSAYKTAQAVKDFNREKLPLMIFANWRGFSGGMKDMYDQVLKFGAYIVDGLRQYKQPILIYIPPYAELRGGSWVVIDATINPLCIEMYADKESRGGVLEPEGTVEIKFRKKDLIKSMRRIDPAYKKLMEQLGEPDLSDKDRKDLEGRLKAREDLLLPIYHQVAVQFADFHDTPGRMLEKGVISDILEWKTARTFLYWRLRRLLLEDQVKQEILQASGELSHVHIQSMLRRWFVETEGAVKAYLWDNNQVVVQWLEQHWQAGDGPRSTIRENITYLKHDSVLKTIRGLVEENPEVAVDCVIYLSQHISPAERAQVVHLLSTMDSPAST
Assay: Measurement of inhibitory activity on human ACC2 (MALDI-TOF MS, acetyl CoA to malonyl CoA conversion)
Type: biochemical
Conditions: inhibition activity on human ACC2, untitled table (Table 81); read-out: IC50
pIC50: −log10 of the molar value.

[
  {
    "molecule": "COc1ccc(F)c(Oc2ccc(/C=C/[C@H](C)NC(C)=O)cn2)c1",
    "pIC50": 6.35
  },
  {
    "molecule": "CCNC(=O)c1cc(C(=O)N[C@@H](C)/C=C/c2cnn(Cc3ccc(Oc4ccccc4)cc3)c2)ccn1",
    "pIC50": 7.32
  },
  {
    "molecule": "CCOc1cc(F)cc(Oc2ccc(/C=C/[C@H](C)NC(C)=O)cn2)c1",
    "pIC50": 6.82
  },
  {
    "molecule": "CCNC(=O)c1cc(C(=O)N[C@@H](C)/C=C/c2cnn(Cc3ccc(C(C)C)cc3)c2)ccn1",
    "pIC50": 6.24
  },
  {
    "molecule": "COc1ccc(Oc2ccc(/C=C(\\C)C(C)NC(C)=O)cn2)c(Cl)c1 (centres unmarked)",
    "pIC50": 6.41
  },
  {
    "molecule": "CC(=O)N[C@@H](C)/C=C/c1cnc(Oc2ccc(NC(=O)CC(C)C)c(Cl)c2)nc1",
    "pIC50": 6.07
  },
  {
    "molecule": "CCOc1ccc(Oc2ccc(/C=C(\\C)C(C)NC(C)=O)cn2)c(Cl)c1 (centres unmarked)",
    "pIC50": 7.10
  },
  {
    "molecule": "CC(=O)N[C@@H](C)/C=C/c1ccc(Oc2ccc(-c3ncco3)cc2Cl)nc1",
    "pIC50": 6.96
  }
]
